- ASSAY_NAME: NCI Yeast Anticancer Drug Screen. Data for the bub3 strain (AID 167)
- MEASUREMENT_CONDITIONS: S. cerevisiae bub3 mutant strain, at 50.0 µM (retest, dose inferred, filed as 5.0)
About 79,000 compounds went through this panel and 15% of them were active in at least one assay; those are over-represented in the sample as a whole. Activity calls are given as the source filed them. Cut-off read from the data, not from the text of the source: active = growth inhibition above about 70%; inactive = the rest.
Could you please pick one outcome from this set? active, inactive

Solved cases (5 shown):
MOLECULE | CLASS_LABEL
Cc1ccc(S(=O)(=O)N2CCN(C)CC2)cc1 | inactive
CCCCCCCCCCCCCCCCCCOC(=O)C(N)CCCCN (centres undefined) | active
COc1ccc(C(O)/C(=N\NC(N)=S)c2nc3ccc([N+](=O)[O-])cc3[nH]c2=O)cc1OC (centres undefined) | active
NNC(=O)N/N=C(\CC1(O)C(=O)Nc2c(Cl)ccc(Cl)c21)c1ccc(F)cc1 (centres undefined) | active
O=C1c2cc([N+](=O)[O-])cc3cc([N+](=O)[O-])cc(c23)C(=O)N1CCNCCN1C(=O)c2cc([N+](=O)[O-])cc3cc([N+](=O)[O-])cc(c23)C1=O | active

Input line: // outcome(item) with item = `CC1=C/C(=C(/c2ccc(O)c(C)c2)c2ccccc2C(=O)O)C=CC1=O`
Output line: active

Input line: // outcome(item) with item = `COc1cc2c(cc1OC)[C@H]1C(=O)c3cc4c(cc3[C@H]1N(C)C2=O)OCO4`
Output line: inactive

Input line: // outcome(item) with item = `O=C1OC(=O)c2ccc(S)c3cccc1c23`
Output line: active

Input line: // outcome(item) with item = COc1cc(C2C(Cl)C(=O)N2NC(=O)c2ccccc2O)cc(OC)c1OC (centres undefined)
Output line: inactive

Input line: // outcome(item) with item = `COc1ccc2c(c1)sc(/C=C/c1ccc(O)c3ncccc13)[n+]2C`
Output line: active

Input line: // outcome(item) with item = `O=C(CSc1cc[o+]cc1)c1cccc([N+](=O)[O-])c1`
Output line: active

Input line: // outcome(item) with item = `c1nc2nc(N3CCOCC3)nc(N3CCCCC3)c2[nH]1`
Output line: inactive

Input line: // outcome(item) with item = `Cc1c2ccncc2cc2c1sc1ccncc12`
Output line: active

Input line: // outcome(item) with item = CC(=O)OC1CCC2(C)C(CCC3C2CCC2(C)C4CCC32OC(=O)C4CC(=O)O)C1 (centres undefined)
Output line: inactive

Input line: // outcome(item) with item = `Cc1c(NC(=O)CCl)c(=O)oc2c(C)c3occc(=O)c3cc12`
Output line: active

Input line: // outcome(item) with item = `C=C(C)CCC(=C)C`
Output line: inactive

Input line: // outcome(item) with item = `O=C(/C=C/C(=O)N1CCCC1)N1CCCC1`
Output line: inactive

Input line: // outcome(item) with item = `Cc1ccc2c(c1)-c1cc(C)ccc1C2(O)c1ccccc1`
Output line: active

Input line: // outcome(item) with item = `O=C(Nc1ccccc1C(=O)NC(=O)c1ccccc1NC(=O)c1ccccc1)c1ccccc1`
Output line: active

* * *

- ASSAY_NAME: NCI Yeast Anticancer Drug Screen. Data for the rad50 strain (AID 155)
- MEASUREMENT_CONDITIONS: S. cerevisiae rad50 strain growth inhibition; at 50.0 µM; active compounds read high
The panel holds about 79,000 compounds, 15% with a hit somewhere; the sample as a whole holds those more often.
Label yes when growth inhibition is at or above 70%; anything below gets no.

COMPOUND | CLASS_LABEL
O=C(O)Cc1c[nH]c2ccccc12 | no
CC1C(=O)C(Br)CC2C1(C)CCC1C2(C)CCC2(C)C3CC(C)(C)CCC3(C)CCC12C (centres undefined) | no
O=C(/C=C/c1ccc(O)cc1)c1cc(Cl)ccc1O | yes

Input line: Hi team, for `CC(C)Nc1nc(NC(C)C)c2cnn(-c3ccccc3)c2n1` , is the recorded growth inhibition at or above 70%?
Output line: yes

Input line: Hi team, for `COc1ccc2c(c1)c1c(C)c3cnccc3c(C)c1n2CCCN` , is the recorded growth inhibition at or above 70%?
Output line: yes

The origin of these recorded values is PubChem BioAssay (NCI).
